Sourced from patent US20250152585A1

target entity: PARP2 (Homo sapiens, UniProt Q9UGN5)
Sequence (Q9UGN5 whole entry): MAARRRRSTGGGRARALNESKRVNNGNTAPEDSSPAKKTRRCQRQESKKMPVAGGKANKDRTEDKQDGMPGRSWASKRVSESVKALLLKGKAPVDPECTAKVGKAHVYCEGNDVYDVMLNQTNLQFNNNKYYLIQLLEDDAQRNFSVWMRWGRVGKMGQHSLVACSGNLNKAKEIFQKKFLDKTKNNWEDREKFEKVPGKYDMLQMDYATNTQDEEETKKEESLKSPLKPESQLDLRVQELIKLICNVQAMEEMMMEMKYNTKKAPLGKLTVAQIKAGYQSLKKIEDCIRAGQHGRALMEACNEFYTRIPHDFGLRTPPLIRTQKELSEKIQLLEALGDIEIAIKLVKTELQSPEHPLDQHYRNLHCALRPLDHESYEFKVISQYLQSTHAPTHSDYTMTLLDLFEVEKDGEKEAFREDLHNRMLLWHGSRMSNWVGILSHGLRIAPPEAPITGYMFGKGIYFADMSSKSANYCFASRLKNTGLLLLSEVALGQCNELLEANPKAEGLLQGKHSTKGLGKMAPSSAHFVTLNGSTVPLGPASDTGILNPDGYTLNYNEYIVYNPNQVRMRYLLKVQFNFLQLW
assay overview: NanoBRET cellular target occupancy assay, PARP2
study conditions: HEK293 cells transiently transfected with PARP2-NanoLuc fusion; tracer 2 nM; 2 hours at 37° C.; Kd by Cheng-Prussoff
This listing pairs molecules with measured Kd.

Study these solved cases before continuing.
CNC(=O)c1ccc(N2CCC(N3CCC(c4cc5ccc(F)cc5c(=O)[nH]4)C3)CC2)c(Cl)n1 (racemic) [Compound 175rac] : 1000 to 10000 nM
CNC(=O)c1ccc(N2CCC(N3CCC(c4cc5ncc(F)cc5c(=O)[nH]4)C3)CC2)c(F)n1 (racemic) [Compound 324rac] : 1000 to 10000 nM

Need Kd, item CNC(=O)c1ccc(N2CCC(N3CCC(c4nc5c(c(C(F)(F)F)cn5C)c(=O)[nH]4)C3)CC2)cn1 (racemic) [Compound 170rac]
10 to 100 nM

Need Kd, item CNC(=O)c1ccc(N2CCC(N3CCC(c4[nH]c(=O)c5ccccc5c4F)C3)CC2)cn1 (racemic) [Compound 258rac]
100 to 1000 nM

Need Kd, item CNC(=O)c1ccc(N2CCC(N3CCC(c4cc5c(F)ccc(F)c5c(=O)[nH]4)C3)CC2)cn1 (single isomer, unassigned) [Compound 180b]
100 to 1000 nM

Need Kd, item CNC(=O)c1ccc(N2CCC(N3CCC(c4cc5c(F)cncc5c(=O)[nH]4)C3)CC2)c(F)n1 (single isomer, unassigned) [Compound 343a]
1000 to 10000 nM

Need Kd, item CCc1cnc(C23CC(C2)N(C2CCN(c4ccc(C(=O)NC)nc4F)CC2)C3)[nH]c1=O [Compound 300]
> 10000 nM

Need Kd, item CNC(=O)c1ccc(N2CCC(N3CCC(c4cc5ccc(F)cc5c(=O)[nH]4)C3)CC2)c(Cl)n1 (single isomer, unassigned) [Compound 223b]
100 to 1000 nM

Need Kd, item CNC(=O)c1ccc(N2CCC(N3CCC(c4nc5ccc(F)cc5c(=O)[nH]4)C3)CC2)cn1 (single isomer, unassigned) [Compound 64b]
100 to 1000 nM

Need Kd, item CNC(=O)c1ccc(N2CCC(N3CC4(c5nc6ccc(F)cc6c(=O)[nH]5)CC3C4)CC2)c(F)n1 [Compound 259]
1000 to 10000 nM

Need Kd, item CCc1ccc(C2CCN(C3CCN(c4ccc(C(=O)NC)nc4Cl)CC3)C2)[nH]c1=O (racemic) [Compound 144rac]
> 10000 nM

Need Kd, item CNC(=O)c1ccc(N2CCC(N3CCC(c4cc5ncc(F)cc5c(=O)[nH]4)C3)CC2)cn1 (racemic) [Compound 315rac]
100 to 1000 nM

Need Kd, item CNC(=O)c1ccc(N2CCC(N3CCC(c4nc5ccc(Cl)cc5c(=O)[nH]4)C3)CC2)cn1 (single isomer, unassigned) [Compound 68a]
1000 to 10000 nM
